The measured values listed here are drawn from PubChem BioAssay (NCI).

system: T-47D breast; experiment: NCI-60 one-dose screen, 48 h (100 = growth as untreated, 0 = no growth, -100 = all killed); settings: 10 µM unless noted
This is part of a sample that, as a whole, favours compounds with a hit. Of some 83,000 tested, about 20% had one in any assay.
measurementKind: growth (%)

entrySmiles	measuredOn	measurementKind	readingUnit	observedResult
S=c1nc(CS)[nH]c2ccccc12	T-47D breast	growth	%	109
C=CCNC(=O)Cc1c(-c2ccc(OC)cc2)oc2c(OC)c3c(c(OC)c12)OCO3	T-47D breast	growth	%	101
O=S(=O)(O)c1ccc(N=Nc2ccc(N=Nc3cccc4ccccc34)c(S(=O)(=O)O)c2)cc1	T-47D breast	growth	%	81.3
N#Cc1c(-c2cccc(F)c2)cc(-c2cccnc2)[nH]c1=O	T-47D breast	growth	%	93.4
O=C(Nc1ccc(F)cc1)c1cc2cc(Nc3nc(-c4ccccc4)nc4ccccc34)ccc2oc1=O	T-47D breast	growth	%	95.7
CCCCCCCCCCCCCCCCCCn1cc(COc2ccc(C=O)cc2)nn1	T-47D breast	growth	%	88.6
CC[C@@H]1NC(=O)[C@H]([C@H](O)[C@H](C)C/C=C/c2ccc(CN3C(=O)C(C)=C(C)C3=O)cc2)N(C)C(=O)[C@H](C(C)C)N(C)C(=O)[C@H](CC(C)C)N(C)C(=O)[C@H](CC(C)C)N(C)C(=O)[C@@H](C)NC(=O)[C@H](C)NC(=O)[C@H](CC(C)C)N(C)C(=O)[C@H](C(C)C)NC(=O)[C@H](CC(C)C)N(C)C(=O)CN(C)C1=O	T-47D breast	growth	%	54.7

###

Below, each entry is listed with its recorded growth.
test system: T-47D breast; assay: NCI-60 one-dose screen, 48 h (100 = growth as untreated, 0 = no growth, -100 = all killed); conditions: 100 µM
About 83,000 compounds went through this panel and 20% of them were active in at least one assay; those are over-represented in the sample as a whole. Activity calls are given as the source filed them. How the source made its calls: active means growth percent below 10; inactive means the rest.
measurementKind: growth

> print(dat)
                                entrysmiles    observedresult
1  CCN(Cc1ccccc1)c1ccc(/C=C2\COc3ccccc3C2=O)cc1  12.3% (inactive)
2  COc1ccc(C(=O)/C=C/c2ccc(OCc3cccc(C(F)(F)F)c3)c(OC)c2)cc1OC  11.3% (inactive)
3  CC(=O)/C=C/c1ccc(OCc2ccc(C(C)(C)C)cc2)cc1    5.88% (active)
4  O=C(/C=C/c1cccc(Oc2ccc(Cl)cc2)c1)c1ccccc1     -72% (active)

###

tested on: SK-MEL-28 melanoma; test: NCI-60 one-dose screen, 48 h; conditions: 10 µM unless noted
This is part of a sample that, as a whole, favours compounds with a hit. Of some 83,000 tested, about 20% had one in any assay. Active and inactive are the calls of the source. The calls were made as follows: active = growth percent below 10; inactive = the rest.
Outcomes: yes (active), no (inactive)

> print(dat)
                                   compound          measuredon  labelclass
1  Cc1ccc2c(c1)C(C)Cc1c(ncnc1-n1cnc3cc(C)ccc31)N2C (centres undefined)  SK-MEL-28 melanoma          no
2  O=C(/C=C/c1ccc([N+](=O)[O-])cc1)c1ccccc1  SK-MEL-28 melanoma          no
3  CONC1=Nc2cc(NC(N)=NCc3ccccc3)c(N(C)C3CCCCC3)cc2OC1  SK-MEL-28 melanoma          no
4  COc1cc(-c2nn(-c3cccc(NC(=O)CCN4CCN(C)CC4)c3)cc2-c2ccncc2)ccc1Cl  SK-MEL-28 melanoma          no
5  O=C1/C(=C/c2ccc(F)c(F)c2)CN(C(=O)C(Cl)Cl)C/C1=C\c1ccc(F)c(F)c1  SK-MEL-28 melanoma         yes
6  [2H]C([2H])([2H])Oc1cccc(/C=C/C(=O)/C=C(/C=C/c2cccc(OC([2H])([2H])[2H])c2OC([2H])([2H])[2H])OB(F)F)c1OC([2H])([2H])[2H]  SK-MEL-28 melanoma          no
7  Oc1ccccc1C=Nc1ccc(N2CCN(c3ccccc3)CC2)cc1  SK-MEL-28 melanoma          no
8    O=C(N=Nc1c(O)[nH]c2ccccc12)Nc1ccccc1Cl  SK-MEL-28 melanoma          no
9  Cc1oc2c(Cc3ccc(NC(=O)c4ccc(Cl)cc4)cc3)ncnc2c1C(=O)NO  SK-MEL-28 melanoma          no

###

Tested on: IGROV1 ovarian
Assay: NCI-60 one-dose screen, 48 h
Details: 10 µM unless noted
Protocol: Growth inhibition of the IGROV1 human tumor cell line is measured as a screen for anti-cancer activity. Cells are grown in 96 well plates and exposed to the test compound for 48 hours. Compounds are tested at a single concentration, which is 10^-5 M for most compounds. The reported endpoint is percent growth (GI% or GIPRCNT), where numbers from 0 - 100% represent growth inhibition, and numbers from -100% - 0 represent cell death. For example, a value of 40 represents 60% growth inhibition. […]
Compounds without any hit were thinned out: in the full panel of roughly 83,000, 20% have a hit. The source made the active and inactive calls. The calls were made as follows: active = growth percent below 10; inactive = the rest.
Outcomes: 1 (yes) (active), 0 (no) (inactive)

compound	labelClass
COc1cccc(C2C(C#N)=C(N)Oc3cc(OCCCCCC[P+](c4ccccc4)(c4ccccc4)c4ccccc4)ccc32)c1 (stereo not drawn)	1 (yes)
COC1/C=C/OC2(C)Oc3c(C)c(O)c4c(O)c(c(C=NOC(c5ccccc5)c5ccccc5)c(O)c4c3C2=O)NC(=O)/C(C)=C/C=C/C(C)C(O)C(C)C(O)C(C)C(OC(C)=O)C1C (stereo not drawn)	0 (no)
CN(C)C(=O)c1cc2cnc(Nc3ccc(-c4csc5c(=S)cc(N6CCOCC6)oc45)cc3)nc2n1C1CCCC1	1 (yes)
Cc1ccc(-c2nc([P+](c3ccccc3)(c3ccccc3)c3ccccc3)c(Nc3ccccc3)o2)cc1	0 (no)
O=C(Nc1ncc(Cc2cccc(C(F)(F)F)c2)s1)c1ccc(-n2cnnn2)cc1	0 (no)
C#CCOCC1CN(C)C(=O)O1 (stereo not drawn)	0 (no)
O=c1cc(N/N=C/c2ccc(F)cc2)c2cc(Cl)ccc2[nH]1	0 (no)
CCN(CC)CCCN1C(=O)c2c(c(C)c3c(oc4cc(OC)ccc43)c2C)C1=O	0 (no)

###

Test system: BT-549 breast
Assay: NCI-60 one-dose screen, 48 h
Conditions: 10 µM unless noted
Protocol: Growth inhibition of the BT-549 human tumor cell line is measured as a screen for anti-cancer activity. Cells are grown in 96 well plates and exposed to the test compound for 48 hours. Compounds are tested at a single concentration, which is 10^-5 M for most compounds. The reported endpoint is percent growth (GI% or GIPRCNT), where numbers from 0 - 100% represent growth inhibition, and numbers from -100% - 0 represent cell death. For example, a value of 40 represents 60% growth inhibition. […]
About 83,000 compounds went through this panel and 20% of them were active in at least one assay; those are over-represented in the sample as a whole. The source made the active and inactive calls. How the source made its calls: active means growth percent below 10; inactive means the rest.
Outcomes: active, inactive

> print(dat)
                                entrysmiles  labelclass
1  COc1cc(/C=C2/C=C(c3ccc(C(C)(C)C)cc3)N(CCc3ccc(S(N)(=O)=O)cc3)C2=O)cc(OC)c1OC    inactive
2  C[C@]12CCc3c(ccc4cc(O)ccc34)[C@@H]1C[C@H](O)[C@@H]2O    inactive
3  Cc1ccc(-c2nc([P+](c3ccccc3)(c3ccccc3)c3ccccc3)c(Nc3ccccc3)o2)cc1      active
4   CCOC(=O)c1cnn(-c2ccc(S(N)(=O)=O)cc2)c1N    inactive
5  O=C1/C(=C/c2ccc(-c3cccc(C(F)(F)F)c3)o2)SC(=S)N1CCc1ccc(O)cc1    inactive
6  N#Cc1ccccc1OCC(=O)Nc1nc2c(s1)COc1ccccc1-2    inactive
7  Cc1cccc(-c2nnc(SCC(=O)Nc3ncc(Cc4ccccc4)s3)n2N2C(=O)CSC2=S)c1    inactive
8  CC/C=C\C/C=C\C[C@H](O)C/C=C1/C(=O)C=C[C@@H]1C/C=C\CCCC(=O)OC      active
9  COc1ccc2c(O)c(/C=C3\N=Nc4nc(C)ccc43)oc2c1CC1CCNCC1    inactive

###

test system: MCF7 breast; assay: NCI-60 one-dose screen, 48 h; conditions: 10 µM unless noted
Compounds without any hit were thinned out: in the full panel of roughly 83,000, 20% have a hit. Active and inactive are the calls of the source. How the source made its calls: active means growth percent below 10; inactive means the rest.
Outcomes: true (1) = active, false (0) = inactive

compound	labelClass
O=C1N=c2ccccc2=C1c1sc(=S)n(C2CC(=O)N(c3ccc(Cl)cc3)C2=O)c1O (stereo not drawn)	false (0)
COc1ccc2c(c1)c(-c1nc(-c3c[nH]c4c(Cl)nccc34)cs1)cn2C	true (1)
O=C1CCc2c(sc3[nH]c(=S)n(Cc4ccc(Cl)cc4)c(=O)c23)C1	true (1)
CCCCCCCCCCCCCCCC(=O)O[C@@H]1[C@@H](O)[C@@H](O)C([C@H](NC(=O)[C@@H]2C[C@@H](CCC)CN2C)[C@H](C)Cl)O[C@@H]1SC (stereo partly drawn)	false (0)
CC1(C)C(N)=Nc2cc(OCCCN3Cc4ccc(OCCc5cn(CC(=O)N6CCC(CCN7CCCC7)CC6)nn5)cc4C3)c(OCC3CC3)cc21	false (0)
C=C1C(=O)O[C@H]2[C@H]1CC/C(CNS(=O)(=O)c1ccc3ccccc3c1)=C\CC[C@@]1(C)O[C@@H]21	true (1)
Nc1nc(Nc2cccnc2)sc1C(=O)c1ccccc1F	true (1)
COc1cc2c(cc1OCCCOC1=C=C=C(c3ccc4c(c3)c3cc(-c5ccc(OCCCOc6cc7c(cc6OC)C(=O)N6CCC[C@H]6C=N7)cc5)ccc3n4S(=O)(=O)c3ccc(C)cc3)C=C1)N=C[C@@H]1CCCN1C2=O	false (0)
